# assay.notes: Pharmacokinetics after repeated oral administration of 250 μg/kg and 35 μg/kg of fluralaner in dogs after feeding
# Format: in vivo, beagle dogs
# test.conditions: beagle, dog, plasma, po, 216 h; oral 250/35/600 μg/kg regimen, dogs, n=6; read-out: fluralaner concentration levels, Mean
property.name: concentration at 216 h (ng/mL)

Cc1cc(C2=NOC(c3cc(Cl)cc(Cl)c3)(C(F)(F)F)C2)ccc1C(=O)NCC(=O)NCC(F)(F)F (stereo not shown) [fluralaner, Fluralaner] = 518

====

# assay.notes: Pharmacokinetics after repeated oral administration of 250 μg/kg and 35 μg/kg of fluralaner in dogs after feeding
# Type: in vivo, beagle dogs
# test.conditions: beagle, dog, plasma, po, 72 h; oral 250/35/600 μg/kg regimen, dogs, n=6; read-out: fluralaner concentration levels, Minimum
property.name: concentration at 72 h (ng/mL)

Cc1cc(C2=NOC(c3cc(Cl)cc(Cl)c3)(C(F)(F)F)C2)ccc1C(=O)NCC(=O)NCC(F)(F)F (stereo not shown) = 361

====

# assay.notes: Pharmacokinetics after repeated oral administration of 35 μg/kg of fluralaner in dogs after feeding
# Format: in vivo, beagle dogs
# test.conditions: beagle, dog, plasma, po, 35 μg/kg, 96 h; oral 35 μg/kg Days 0-3, dogs, n=6; read-out: fluralaner concentration levels, Mean
property.name: concentration at 96 h (ng/mL)

Cc1cc(C2=NOC(c3cc(Cl)cc(Cl)c3)(C(F)(F)F)C2)ccc1C(=O)NCC(=O)NCC(F)(F)F (stereo not shown) [fluralaner, Fluralaner] = 84.4

====

# assay.notes: Pharmacokinetics after repeated oral administration of 250 μg/kg and 35 μg/kg of fluralaner in dogs after feeding
# Format: in vivo, beagle dogs
# test.conditions: beagle, dog, plasma, po, 384 h; oral 250/35/600 μg/kg regimen, dogs, n=6; read-out: fluralaner concentration levels, Median
property.name: concentration at 384 h (ng/mL)

Cc1cc(C2=NOC(c3cc(Cl)cc(Cl)c3)(C(F)(F)F)C2)ccc1C(=O)NCC(=O)NCC(F)(F)F (stereo not shown) = 654

====

# assay.notes: Pharmacokinetics after repeated oral administration of 250 μg/kg and 35 μg/kg of fluralaner in dogs after feeding
# Assay type: in vivo, beagle dogs
# test.conditions: beagle, dog, plasma, po, 96 h; oral 250 μg/kg Days 0-3, 35 μg/kg Days 4-9, 600 μg/kg Day 11, dogs; read-out: fluralaner concentration levels, individual animal
property.name: concentration at 96 h (ng/mL)

Cc1cc(C2=NOC(c3cc(Cl)cc(Cl)c3)(C(F)(F)F)C2)ccc1C(=O)NCC(=O)NCC(F)(F)F (stereo not shown) [fluralaner, Fluralaner] = 497

====

# assay.notes: Pharmacokinetics after repeated oral administration of 35 μg/kg of fluralaner in dogs after feeding
# Assay type: in vivo, beagle dogs
# test.conditions: beagle, dog, plasma, po, 35 μg/kg, 48 h; oral 35 μg/kg Days 0-3, dogs, n=6; read-out: fluralaner concentration levels, Maximum
property.name: concentration at 48 h (ng/mL)

Cc1cc(C2=NOC(c3cc(Cl)cc(Cl)c3)(C(F)(F)F)C2)ccc1C(=O)NCC(=O)NCC(F)(F)F (stereo not shown) = 40.9

====

# assay.notes: Pharmacokinetics after repeated oral administration of 250 μg/kg and 35 μg/kg of fluralaner in dogs after feeding
# Type: in vivo, beagle dogs
# test.conditions: beagle, dog, plasma, po, 384 h; oral 250/35/600 μg/kg regimen, dogs, n=6; read-out: fluralaner concentration levels, GeoMean
property.name: concentration at 384 h (ng/mL)

Cc1cc(C2=NOC(c3cc(Cl)cc(Cl)c3)(C(F)(F)F)C2)ccc1C(=O)NCC(=O)NCC(F)(F)F (stereo not shown) = 693
